All values here come from the supplement of paper PMC10567573.

B1: TRIM55 (parent)
chain: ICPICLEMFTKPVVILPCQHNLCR

Variants of: B1
measurementNotes: protein stability index of a GFP-peptide fusion (GPS, HEK-293T) (PSI 1-6); higher = more stable;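 note: lentivirally expressed fusions sorted by FACS into six bins by GFP to DsRed ratio, PSI derived from sequencing read proportions per bin multiplied by bin number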
conditionNotes: c terminus: a fixed tail appended
testReadout: protein stability index
Just the number.

**Query** Entry ICPICLEMFTKPIVILPCQHNLCR [V13I] has what protein stability index?
**Result** 2.11

**Query** Entry ICPICLEMFTKPVVILPCQSNLCR [H20S] has what protein stability index?
**Result** 2.12

**Query** Entry ICPICLEMFTKPVVILPIQHNLCR [C18I] has what protein stability index?
**Result** 2.02

**Query** Entry ICMICLEMFTKPVVILPCQHNLCR [P3M] has what protein stability index?
**Result** 2.07

**Query** Entry ICPICLEMFTKPVVILPCEHNLCR [Q19E] has what protein stability index?
**Result** 2.28

**Query** Entry TCPICLEMFTKPVVILPCQHNLCR [I1T] has what protein stability index?
**Result** 2.51

**Query** Entry ICPICLEMFTKPVVILPCQHNLKR [C23K] has what protein stability index?
**Result** 2.03

**Query** Entry ICPICLEPFTKPVVILPCQHNLCR [M8P] has what protein stability index?
**Result** 2.71

**Query** Entry ICPICLEMFTKPVVIAPCQHNLCR [L16A] has what protein stability index?
**Result** 2.56

**Query** Entry ICPICLEMYTKPVVILPCQHNLCR [F9Y] has what protein stability index?
**Result** 2.18

**Query** Entry IGPICLEMFTKPVVILPCQHNLCR [C2G] has what protein stability index?
**Result** 1.77

**Query** Entry ICPICMEMFTKPVVILPCQHNLCR [L6M] has what protein stability index?
**Result** 2.45

**Query** Entry ICPICLEMFTKPVVILPMQHNLCR [C18M] has what protein stability index?
**Result** 2.16

**Query** Entry ICPICLEMFTKPNVILPCQHNLCR [V13N] has what protein stability index?
**Result** 2.92

**Query** Entry KCPICLEMFTKPVVILPCQHNLCR [I1K] has what protein stability index?
**Result** 2.75

**Query** Entry ICPKCLEMFTKPVVILPCQHNLCR [I4K] has what protein stability index?
**Result** 2.74

**Query** Entry ICPICLEMFTIPVVILPCQHNLCR [K11I] has what protein stability index?
**Result** 2.29

**Query** Entry ICPSCLEMFTKPVVILPCQHNLCR [I4S] has what protein stability index?
**Result** 2.72

**Query** Entry ICPICLIMFTKPVVILPCQHNLCR [E7I] has what protein stability index?
**Result** 1.94

**Query** Entry ICPICLEMFTKPVVILPCQHNHCR [L22H] has what protein stability index?
**Result** 2.48

**Query** Entry ICPICLEMFTKPVWILPCQHNLCR [V14W] has what protein stability index?
**Result** 1.89

**Query** Entry ICPICLEMFTKLVVILPCQHNLCR [P12L] has what protein stability index?
**Result** 2.02

**Query** Entry ICPICLEMFTKPVVILPCQHNLTR [C23T] has what protein stability index?
**Result** 2.64

**Query** Entry ICPICLELFTKPVVILPCQHNLCR [M8L] has what protein stability index?
**Result** 1.66

**Query** Entry ICPGCLEMFTKPVVILPCQHNLCR [I4G] has what protein stability index?
**Result** 2.03

**Query** Entry ICPICLEMFTKPVVILPCQHNKCR [L22K] has what protein stability index?
**Result** 2.38

**Query** Entry QCPICLEMFTKPVVILPCQHNLCR [I1Q] has what protein stability index?
**Result** 3.01

**Query** Entry ICPICLEMFTKPVVILPCQGNLCR [H20G] has what protein stability index?
**Result** 2.08

**Query** Entry ICPICLEMFTEPVVILPCQHNLCR [K11E] has what protein stability index?
**Result** 2.83

**Query** Entry ICPICLEMFTKPVVTLPCQHNLCR [I15T] has what protein stability index?
**Result** 2.88
